Source of measurements: patent US8053453B2

- ASSAYED_SYSTEM: human TPO receptor (Homo sapiens, UniProt P40238)
- Construct: expressed in transfected cells
- Sequence (P40238 26-635): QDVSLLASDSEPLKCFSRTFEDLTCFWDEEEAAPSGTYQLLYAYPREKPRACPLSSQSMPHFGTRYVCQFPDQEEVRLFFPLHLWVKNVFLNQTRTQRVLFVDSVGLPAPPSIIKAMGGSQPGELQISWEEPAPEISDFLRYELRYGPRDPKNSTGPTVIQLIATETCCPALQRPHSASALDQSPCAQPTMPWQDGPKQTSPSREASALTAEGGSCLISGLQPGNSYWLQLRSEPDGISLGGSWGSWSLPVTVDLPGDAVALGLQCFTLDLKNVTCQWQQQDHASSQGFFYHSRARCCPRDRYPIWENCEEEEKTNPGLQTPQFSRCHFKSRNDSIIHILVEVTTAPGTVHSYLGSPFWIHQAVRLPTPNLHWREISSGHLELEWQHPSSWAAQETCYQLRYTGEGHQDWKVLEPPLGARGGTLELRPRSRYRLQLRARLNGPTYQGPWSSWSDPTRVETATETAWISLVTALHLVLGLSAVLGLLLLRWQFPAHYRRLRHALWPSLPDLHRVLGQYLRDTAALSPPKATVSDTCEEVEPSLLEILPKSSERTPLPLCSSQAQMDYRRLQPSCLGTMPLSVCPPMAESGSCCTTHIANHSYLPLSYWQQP
- METHOD_DESCRIPTION: Proliferation of TPO-dependent cell line UT7/EPO-mpl, MTT method (Assay Examples 1, 3, 4)
- Format: cell-based
- EXPERIMENTAL_SETUP: UT7/EPO-mpl cells; value in the presence of 10 ng/ml TPO taken as 100% standard; method of Assay Example 1
Recorded Efficacy (%) (maximal growth rate), one value per entry.
Could you give me the number in %? Just the number is fine.

CC1=NN(c2ccc(C(F)(F)F)cc2)C(=O)C1=C(C)NNC(=O)c1ccccc1[N+](=O)[O-] [compound 35] : 99

[Q] Lab note: human TPO receptor (Homo sapiens, UniProt P40238) assay, enter Efficacy (%) (maximal growth rate) for COC(=O)c1ccc(C(=O)NNC(C)=C2C(=O)N(c3ccc(C(C)(C)C)cc3)N=C2C)cc1 [compound 4] here
[A] 53

[Q] Recall the reported Efficacy (%) (maximal growth rate) of CC1=NN(c2cccc(C(F)(F)F)c2)C(=O)C1=C(C)NNC(=O)c1ccccc1[N+](=O)[O-] [compound 50] on human TPO receptor (Homo sapiens, UniProt P40238) and write it down.
[A] 89
